Recorded values, source patent US9951060B2.

molecular target: human muscarinic M3 receptor (Homo sapiens, UniProt P20309)
Sequence (P20309 whole entry): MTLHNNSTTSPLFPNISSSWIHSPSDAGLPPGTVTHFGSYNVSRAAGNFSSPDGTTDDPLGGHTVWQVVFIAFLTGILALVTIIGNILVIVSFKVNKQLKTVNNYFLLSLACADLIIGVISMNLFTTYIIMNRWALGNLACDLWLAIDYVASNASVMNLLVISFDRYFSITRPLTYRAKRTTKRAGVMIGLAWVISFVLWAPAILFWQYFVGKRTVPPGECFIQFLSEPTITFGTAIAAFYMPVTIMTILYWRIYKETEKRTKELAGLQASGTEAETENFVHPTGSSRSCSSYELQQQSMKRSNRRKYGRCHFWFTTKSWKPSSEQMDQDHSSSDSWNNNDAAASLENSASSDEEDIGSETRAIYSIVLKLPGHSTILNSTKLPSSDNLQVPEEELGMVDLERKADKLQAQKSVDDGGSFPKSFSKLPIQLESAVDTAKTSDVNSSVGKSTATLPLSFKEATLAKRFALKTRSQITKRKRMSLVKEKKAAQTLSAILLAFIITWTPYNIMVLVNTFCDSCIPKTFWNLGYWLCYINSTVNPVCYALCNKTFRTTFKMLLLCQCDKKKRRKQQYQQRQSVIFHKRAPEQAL
QUANTITY: muscarinic M3 receptor-positive allosteric modulator activity, 1 μM (-fold shift)

human muscarinic M3 receptor (Homo sapiens, UniProt P20309) / muscarinic M3 receptor-positive allosteric modulator activity, 1 μM (-fold shift) / C[C@@H]1CC[C@@H](C)N1Cc1sc(NC(=O)c2cnc(N3CCN(CCC(=O)O)CC3)cn2)nc1-c1cc(F)cc(C(F)(F)F)c1 [Example 119] : value? 110 -fold shift

human muscarinic M3 receptor (Homo sapiens, UniProt P20309) / muscarinic M3 receptor-positive allosteric modulator activity, 1 μM (-fold shift) / C[C@@H]1CC[C@@H](C)N1Cc1sc(NC(=O)c2cnc(N3CCN(CCC(=O)O)CC3)cn2)nc1-c1cc(C(F)(F)F)cs1 [Example 111] : value? 203 -fold shift

human muscarinic M3 receptor (Homo sapiens, UniProt P20309) / muscarinic M3 receptor-positive allosteric modulator activity, 1 μM (-fold shift) / C[C@@H]1CCCN1Cc1sc(NC(=O)c2cnc(N3CCN(CCCC(=O)O)CC3)cn2)nc1-c1cc(F)cc(C(F)(F)F)c1 [Example 21] : value? 25 -fold shift
